Data origin: patent US20230114728A1

# MIC per record follows
- Test system: N. gonorrhoeae WHO L
- assayInfo: Liquid broth MIC in Fastidious broth
- Assay type: cell-based
- condition: Neisseria gonorrhoeae; N. gonorrhoeae strain WHO L; Fastidious broth; read-out: Minimum Inhibitory Concentration, N. gonorrhoeae WHO L
- Procedure: Example V: In Vitro Antibacterial Assays for N. gonorrhoeae Strains Additional antibacterial testing of the series was performed in 8 reference strains of N. gonorrhoeae (ATCC 49226, FA1090, WHO G, WHO L, WHO K, H041, WHO Z, and WHO Q). ATCC 49226, FA1090, WHO G, and WHO L produce wild type or wild-type like PBP2. […] After the dilution plates were set up, direct suspensions were then diluted in a cuvette containing sterile saline and the optical density was measured at 600 nm. […]

- molecule: "CCN1CCN(C(=O)NC(C(=O)N[C@H]2Cc3cccc(C(=O)O)c3OB2O)c2cc(Cl)c(O)c(Cl)c2)C(=O)C1=O (stereo partly drawn)"
  measuredOn: "N. gonorrhoeae WHO L"
  MIC: "> 64 µg/mL"
- molecule: "CCN1CCN(C(=O)NC(C(=O)N[C@H]2Cc3cccc(C(=O)O)c3OB2O)c2ccc(C(=O)O)cc2F)C(=O)C1=O (stereo partly drawn)"
  measuredOn: "N. gonorrhoeae WHO L"
  MIC: "16 to 32 µg/mL"
- molecule: "CCN1CCN(C(=O)NC(C(=O)N[C@H]2Cc3cccc(C(=O)O)c3OB2O)c2cccc(NC(=O)c3ccc(O)c(O)c3Cl)c2)C(=O)C1=O (stereo partly drawn)"
  measuredOn: "N. gonorrhoeae WHO L"
  MIC: "> 64 µg/mL"
- molecule: "NCCN1CCN(C(=O)N[C@H](C(=O)N[C@H]2Cc3cccc(C(=O)O)c3OB2O)c2cc(F)c(O)c(F)c2F)C(=O)C1=O (single isomer, unassigned)"
  measuredOn: "N. gonorrhoeae WHO L"
  MIC: "> 64 µg/mL"
- molecule: "CS(=O)(=O)N1CCN(C(=O)N[C@@H](C(=O)N[C@H]2Cc3cccc(C(=O)O)c3OB2O)c2c(F)cc(O)cc2F)C1=O (single isomer, unassigned)"
  measuredOn: "N. gonorrhoeae WHO L"
  MIC: "16 to 32 µg/mL"
- molecule: "CCN1CCN(C(=O)NC(C(=O)N[C@H]2Cc3ccc(F)c(C(=O)O)c3OB2O)c2ccc(C(=O)O)cc2)C(=O)C1=O (stereo partly drawn)"
  measuredOn: "N. gonorrhoeae WHO L"
  MIC: "> 64 µg/mL"
- molecule: "CCN1CCN(C(=O)N[C@H](C(=O)N[C@H]2Cc3cccc(C(=O)O)c3OB2O)c2cc(O)cc(O)c2)C(=O)C1=O (single isomer, unassigned)"
  measuredOn: "N. gonorrhoeae WHO L"
  MIC: "16 to 32 µg/mL"
- molecule: "CCN1CCN(C(=O)NC(C(=O)N[C@H]2Cc3cccc(C(=O)O)c3OB2O)c2ccc(O)c(NS(C)(=O)=O)c2)C(=O)C1=O (stereo partly drawn)"
  measuredOn: "N. gonorrhoeae WHO L"
  MIC: "> 64 µg/mL"
- molecule: "NCCN1CCN(C(=O)N[C@@H](C(=O)N[C@H]2Cc3cccc(C(=O)O)c3OB2O)c2cc(Cl)c(O)c(Cl)c2)C(=O)C1=O (single isomer, unassigned)"
  measuredOn: "N. gonorrhoeae WHO L"
  MIC: "> 64 µg/mL"
- molecule: "CCN1CCN(C(=O)NC(C(=O)N[C@H]2Cc3cccc(C(=O)O)c3OB2O)c2ccc(N)c(F)c2)C(=O)C1=O (stereo partly drawn)"
  measuredOn: "N. gonorrhoeae WHO L"
  MIC: "16 to 32 µg/mL"
- molecule: "NCCN1CCN(C(=O)N[C@@H](C(=O)N[C@H]2Cc3cccc(C(=O)O)c3OB2O)c2cc(F)c(O)c(F)c2F)C(=O)C1=O (single isomer, unassigned)"
  measuredOn: "N. gonorrhoeae WHO L"
  MIC: "16 to 32 µg/mL"
- molecule: "O=C(NC(C(=O)N[C@H]1Cc2ccc(F)c(C(=O)O)c2OB1O)c1ncc(O)cc1F)c1ccnc(F)c1 (stereo partly drawn)"
  measuredOn: "N. gonorrhoeae WHO L"
  MIC: "> 64 µg/mL"
